Each entry below carries its reported pseudovirus neutralization IC50.
- target: SARS-CoV-2 WT spike on rVSV-deltaG-Luc pseudovirus (SARS-CoV-2), P0DTC2
- method.summary: cell-based or functional assay

{"binder": "19B8 VHH-Fc (Fc fusion) QVQLVESGGGLVQAGGSLRLSCAASGRTFTNYAMGWFRQAPGKEREFVAAISWSGGGTNYADSVKGRFTISRDNAKNTVYLQMNSPKPEDTAVYYCATTLGYYGSSSRLYEYWGQGTQVTVSS", "pseudovirus neutralization IC50 (nM)": 53.5}
{"binder": "9B2 VHH-Fc (Fc fusion) QVQLVESGGGLVQPGGSLRLSCAASGFTLDNYAIGWFRQAPGKEREGVSCISSSDGDTQYADSVKGRFTISRDNAKNTVYLQMNSLKPEDTAVYYCAVEKVYARSWFFHLCSELDFGSWGQGTQVTVSS", "pseudovirus neutralization IC50 (nM)": 1.93}
{"binder": "11F8 VHH-Fc (Fc fusion) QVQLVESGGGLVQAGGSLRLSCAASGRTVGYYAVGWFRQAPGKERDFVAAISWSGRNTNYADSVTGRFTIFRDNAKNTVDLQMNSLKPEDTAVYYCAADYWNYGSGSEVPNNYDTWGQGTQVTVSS", "pseudovirus neutralization IC50 (nM)": 1.07}
{"binder": "13C8 VHH-Fc (Fc fusion) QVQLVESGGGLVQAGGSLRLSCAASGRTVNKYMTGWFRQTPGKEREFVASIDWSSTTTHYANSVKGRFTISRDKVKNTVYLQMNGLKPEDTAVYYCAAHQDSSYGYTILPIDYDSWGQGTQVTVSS", "pseudovirus neutralization IC50 (nM)": 6.69}
